The reader will find reported IC50 values listed item by item below.
- System: AGS (ATCC-CRL-1739) cells
- assay: Cell viability assay, G12D (AGS)
- Assay type: cell-based, human
- experimental.context: Homo sapiens, KRAS cell viability, 72 hrs, Cell Counting Kit-8

Quick one: IC50 of CCn1c(-c2cc(N3CCN(C)CC3)cnc2[C@H](C)OC)c2c3cc(c(F)cc31)-c1csc(n1)C[C@H](NC(=O)[C@H](C(C)C)N1CC[C@]3(CCN(C(=O)[C@H](F)Cl)C3)C1=O)C(=O)N1CCC[C@H](N1)C(=O)OCC(C)(C)C2 (atropisomer, axis not shown; (M)) ? 237 nM

Quick one: IC50 of CO[C@@H](C)c1ncc(N2CCN(C)CC2)cc1-c1c2c3cc(c(F)cc3n1CC(F)(F)F)-c1csc(n1)C[C@H](NC(=O)[C@H](C(C)C)N1CC[C@]3(CCN(C(=O)[C@H](F)Cl)C3)C1=O)C(=O)N1CCC[C@H](N1)C(=O)OCC(C)(C)C2 (atropisomer, axis not shown; (M)) ? 2240 nM

Quick one: IC50 of CCn1c(-c2cc(N3CCN(C)CC3)cnc2[C@H](C)OC)c2c3cc(c(F)cc31)-c1csc(n1)C[C@H](NC(=O)[C@@H](COC1CN(C(=O)[C@H](F)Cl)C1)C(C)C)C(=O)N1CCC[C@H](N1)C(=O)OCC(C)(C)C2 (atropisomer, axis not shown; (M)) ? 1110 nM

====

- Tested on: phosphorylation of ERK, KRAS G12C in NCJ-H358 cells
- assay: pERK inhibition assay, KRAS G12C
- Assay type: cell-based, human
- experimental.context: Homo sapiens, 4 hours
experimental.readout: pIC50
// pIC50 here means minus log10 of the molar concentration (mol/L)

Examples from the recorded data:
compound | pIC50
CCn1c(-c2cc(N3CCN(C)CC3)cnc2[C@H](C)OC)c2c3cc(c(F)cc31)-c1csc(n1)C[C@H](NC(=O)[C@H](C(C)C)N1CC[C@@]3(CCN(C(=O)[C@H](F)Cl)C3)C1=O)C(=O)N1CCC[C@H](N1)C(=O)OCC(C)(C)C2 (atropisomer, axis not shown; (M)) | 8.70
CO[C@@H](C)c1ncc(N2CCN(C)CC2)cc1-c1c2c3cc(c(C)cc3n1CC(F)(F)F)-c1csc(n1)C[C@H](NC(=O)[C@H](C(C)C)N(C)C(=O)C1(F)CCN(C(=O)[C@H](F)Cl)CC1)C(=O)N1CCC[C@H](N1)C(=O)OCC(C)(C)C2 (atropisomer, axis not shown; (M)) | 8.52
CO[C@@H](C)c1ncc(N2CCN(CC(F)(F)F)CC2)cc1-c1c2c3cc(c(F)cc3n1CC(F)(F)F)-c1csc(n1)C[C@H](NC(=O)[C@H](C(C)C)N1CCC3(CN(C(=O)[C@H](F)Cl)C3)C1=O)C(=O)N1CCC[C@H](N1)C(=O)OCC(C)(C)C2 (atropisomer, axis not shown; (M)) | 8.05

With those in mind, consider the next compound.
Quick one: pIC50 of CCn1c(-c2cc(N3CCOCC3)cnc2[C@H](C)OC)c2c3cc(c(F)cc31)-c1csc(n1)C[C@H](NC(=O)[C@H](C(C)C)N(C)C(=O)[C@H]1CCN(C(=O)[C@H](F)Cl)C1)C(=O)N1CCC[C@H](N1)C(=O)OCC(C)(C)C2 (atropisomer, axis not shown; (M)) ? 8.22

====

The reader will find reported IC50 values listed item by item below.
- assayed.system: KRAS G12C-BRAF complex (Homo sapiens (Human), UniProt P01116+P62937, G12C)
- Sequence (P01116-2 other isoform, or with tags, fused parts or gaps G12C): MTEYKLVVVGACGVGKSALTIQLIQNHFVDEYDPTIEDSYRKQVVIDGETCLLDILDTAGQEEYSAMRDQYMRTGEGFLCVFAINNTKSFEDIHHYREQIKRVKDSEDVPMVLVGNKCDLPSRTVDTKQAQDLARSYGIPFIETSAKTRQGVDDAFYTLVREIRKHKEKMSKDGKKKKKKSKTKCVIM
- Sequence (P62937 whole entry): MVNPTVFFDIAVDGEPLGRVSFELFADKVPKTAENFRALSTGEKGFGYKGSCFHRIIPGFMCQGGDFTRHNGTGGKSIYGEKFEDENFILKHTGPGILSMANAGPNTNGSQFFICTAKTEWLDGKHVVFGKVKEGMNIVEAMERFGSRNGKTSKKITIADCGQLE
- assay: KRAS-BRAF with CYPA (500 nM) interaction assay (TR-FRET), G12C
- Type: biochemical
Use nM as the unit, but write only the number.

Examples from the recorded data:
compound | result.units | IC50
CCn1c(-c2cc(N3CCN(C)CC3)cnc2[C@H](C)OC)c2c3cc(c(F)cc31)-c1csc(n1)C[C@H](NC(=O)[C@H](C(C)C)N1CCC[C@]3(CCN(C(=O)[C@@H](F)Cl)C3)C1=O)C(=O)N1CCC[C@H](N1)C(=O)OCC(C)(C)C2 [Example 22] | nM | 199
CCn1c(-c2cc(N3CCN(CC(F)(F)F)CC3)cnc2[C@H](C)OC)c2c3cc(c(F)cc31)-c1csc(n1)C[C@H](NC(=O)[C@H](C(C)C)N1CC[C@@]3(CCN(C(=O)[C@H](F)Cl)C3)C1=O)C(=O)N1CCC[C@H](N1)C(=O)OCC(C)(C)C2 (atropisomer, axis not shown; (M)) | nM | 23
CCn1c(-c2cc(N3CCOCC3)cnc2[C@H](C)OC)c2c3cc(c(F)cc31)-c1csc(n1)C[C@H](NC(=O)[C@H](C(C)C)N(C)C(=O)C1(F)CCN(C(=O)[C@H](F)Cl)CC1)C(=O)N1CCC[C@H](N1)C(=O)OCC(C)(C)C2 (atropisomer, axis not shown; (M)) | nM | 19
CCn1c(-c2cc(N3CCN(C)CC3)cnc2[C@H](C)OC)c2c3cc(c(F)cc31)-c1csc(n1)C[C@H](NC(=O)[C@H](C(C)C)N1CCC[C@]3(CCN(C(=O)[C@@H](F)Cl)C3)C1=O)C(=O)N1CCC[C@H](N1)C(=O)OCC(C)(C)C2 [Example 23] | nM | 64
CO[C@@H](C)c1ncc(N2CCN(C)CC2)cc1-c1c2c3cc(c(C)cc3n1CC(F)(F)F)-c1csc(n1)C[C@H](NC(=O)[C@H](C(C)C)N(C)C(=O)C1(F)CCN(C(=O)[C@H](F)Cl)CC1)C(=O)N1CCC[C@H](N1)C(=O)OCC(C)(C)C2 (atropisomer, axis not shown; (M)) | nM | 176

Give recorded IC50 with KRAS G12C-BRAF complex (Homo sapiens (Human), UniProt P01116+P62937, G12C) for the following compound: CCn1c(-c2cc(N3CCOCC3)cnc2[C@H](C)OC)c2c3cc(c(F)cc31)-c1csc(n1)C[C@H](NC(=O)[C@H](C(C)C)N1CC[C@@]3(CCN(C(=O)[C@H](F)Cl)C3)C1=O)C(=O)N1CCC[C@H](N1)C(=O)OCC(C)(C)C2 (atropisomer, axis not shown; (M)) 56

Give recorded IC50 with KRAS G12C-BRAF complex (Homo sapiens (Human), UniProt P01116+P62937, G12C) for the following compound: CCn1c(-c2cc(N3CCOCC3)cnc2[C@H](C)OC)c2c3cc(c(F)cc31)-c1csc(n1)C[C@H](NC(=O)[C@H](C(C)C)N(C)C(=O)[C@H]1CCN(C(=O)[C@H](F)Cl)C1)C(=O)N1CCC[C@H](N1)C(=O)OCC(C)(C)C2 (atropisomer, axis not shown; (M)) 40

====

- System: AGS (ATCC-CRL-1739) cells
- assay: Cell viability assay, G12D (AGS)
- Format: cell-based, human
- experimental.context: Homo sapiens, KRAS cell viability, 72 hrs, Cell Counting Kit-8
The reader will find reported pIC50 values listed item by item below.
// pIC50 here means minus log10 of the molar concentration (mol/L)

Quick one: pIC50 of CCn1c(-c2cc(N3CCOCC3)cnc2[C@H](C)OC)c2c3cc(c(F)cc31)-c1csc(n1)C[C@H](NC(=O)[C@H](C(C)C)N(C)C(=O)[C@H]1CCN(C(=O)[C@H](F)Cl)C1)C(=O)N1CCC[C@H](N1)C(=O)OCC(C)(C)C2 (atropisomer, axis not shown; (M)) [Example 55] ? 6.07

Quick one: pIC50 of CCn1c(-c2cc(N3CCN(C)CC3)cnc2[C@H](C)OC)c2c3cc(c(F)cc31)-c1csc(n1)C[C@H](NC(=O)[C@H](C(C)C)N1CCCC3(CCN(C(=O)[C@H](F)Cl)CC3)C1=O)C(=O)N1CCC[C@H](N1)C(=O)OCC(C)(C)C2 (atropisomer, axis not shown; (M)) [Example 36] ? 7.52

Quick one: pIC50 of CO[C@@H](C)c1ncc(N2CCN(C)CC2)cc1-c1c2c3cc(c(F)cc3n1CC(F)(F)F)-c1cc(O)cc(c1)C[C@H](NC(=O)[C@H](C(C)C)N(C)C(=O)[C@H]1CCN(C(=O)[C@H](F)Cl)C1)C(=O)N1CCC[C@H](N1)C(=O)OCC(C)(C)C2 (atropisomer, axis not shown; (M)) [Example 8] ? 5.81

====

- assayed.system: KRAS G12V binding to BRAF (Homo sapiens (Human), UniProt P01116+P62937, G12V)
- Sequence (P01116-2 other isoform, or with tags, fused parts or gaps G12V, one chain of several): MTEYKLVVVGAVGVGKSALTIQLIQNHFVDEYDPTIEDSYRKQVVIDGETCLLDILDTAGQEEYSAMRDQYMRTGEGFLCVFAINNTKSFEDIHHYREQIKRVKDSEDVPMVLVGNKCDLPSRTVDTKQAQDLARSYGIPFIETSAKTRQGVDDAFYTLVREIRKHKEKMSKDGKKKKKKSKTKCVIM
- assay: KRAS-BRAF with CYPA (500 nM) interaction assay (TR-FRET), G12V
experimental.readout: pIC50
// pIC50 here means minus log10 of the molar concentration (mol/L)

Quick one: pIC50 of CO[C@@H](C)c1ncc(N2CCN(CC(F)(F)F)CC2)cc1-c1c2c3cc(c(F)cc3n1CC(F)(F)F)-c1csc(n1)C[C@H](NC(=O)[C@H](C(C)C)N(C)C(=O)[C@H]1CCN(C(=O)[C@H](F)Cl)C1)C(=O)N1CCC[C@H](N1)C(=O)OCC(C)(C)C2 (atropisomer, axis not shown; (M)) [Example 26] ? 6.02
